Could you please report measured Biodistribution, Lungs for the items listed next?
System: SCID mice bearing twin HEK293-CCK2i4svR and wtHEK293 tumors
protocol text: Biodistribution in SCID mice bearing twin HEK293-CCK2i4svR and wtHEK293 xenografts
Assay type: in vivo
condition description: 4 h pi
Return type: number; implicit unit %IA/g.

Give reported Biodistribution, Lungs for CC(C)(C)C(=O)CN1C(=O)[C@H](NC(=O)Nc2cccc(C(=O)NCCOCCOCCOCCNC(=O)[C@@H](CCC(=O)O)NC(=O)CCC(C(=O)[O-])N3CCN(CC(=O)[O-])CCN(CC(=O)[O-])CC3)c2)CN(C2CCCCC2)c2ccccc21.[111In+3] (stereo partly drawn) [[^111In]In-GAS2] (SCID mice bearing twin HEK293-CCK2i4svR and wtHEK293 tumors)
3.27

Jot down Biodistribution, Lungs (SCID mice bearing twin HEK293-CCK2i4svR and wtHEK293 tumors) of CC(C)(C)C(=O)CN1C(=O)[C@H](NC(=O)Nc2cccc(C(=O)NCCOCCOCCOCCNC(=O)[C@H](CCC(=O)O)NC(=O)CN3CCN(CC(=O)[O-])CCN(CC(=O)[O-])CCN(CC(=O)[O-])CC3)c2)CN(C2CCCCC2)c2ccccc21.[67Ga+3] (stereo in doubt) [[^67Ga]Ga-GAS1] .
1.19

With SCID mice bearing twin HEK293-CCK2i4svR and wtHEK293 tumors as the test system, provide measured Biodistribution, Lungs for this molecule: CC(C)(C)C(=O)CN1C(=O)[C@H](NC(=O)Nc2cccc(C(=O)NCCOCCOCCOCCNC(=O)[C@H](CCC(=O)O)NC(=O)CN3CCN(CC(=O)[O-])CCN(CC(=O)[O-])CCN(CC(=O)[O-])CC3)c2)CN(C2CCCCC2)c2ccccc21.[177Lu+3] (stereo in doubt) [[^177Lu]Lu-GAS1]
0.94

Fill in: Biodistribution, Lungs on SCID mice bearing twin HEK293-CCK2i4svR and wtHEK293 tumors, entry CC(C)(C)C(=O)CN1C(=O)[C@H](NC(=O)Nc2cccc(C(=O)NCCOCCOCCOCCNC(=O)[C@H](CCC(=O)O)NC(=O)CN3CCN(CC(=O)[O-])CCN(CC(=O)[O-])CCN(CC(=O)[O-])CC3)c2)CN(C2CCCCC2)c2ccccc21.[111In+3] (stereo in doubt) [[^111In]In-GAS1]
2.23

Provide Biodistribution, Lungs, tested on SCID mice bearing twin HEK293-CCK2i4svR and wtHEK293 tumors, for CC(C)(C)C(=O)CN1C(=O)[C@H](NC(=O)Nc2cccc(C(=O)NCCOCCOCCOCCNC(=O)[C@@H](CCC(=O)O)NC(=O)CCC(C(=O)O)N3CCN(CC(=O)[O-])CCN(CC(=O)[O-])CCN(CC(=O)[O-])CC3)c2)CN(C2CCCCC2)c2ccccc21.[111In+3] (stereo partly drawn) [[^111In]In-GAS3] .
1.36

Provide measured Biodistribution, Lungs on SCID mice bearing twin HEK293-CCK2i4svR and wtHEK293 tumors for CC(C)(C)C(=O)CN1C(=O)[C@H](NC(=O)Nc2cccc(C(=O)NCCOCCOCCOCCNC(=O)[C@H](CCC(=O)O)NC(=O)CCC(C(=O)O)N3CCN(CC(=O)[O-])CCN(CC(=O)[O-])CCN(CC(=O)[O-])CC3)c2)CN(C2CCCCC2)c2ccccc21.[177Lu+3] (stereo in doubt) [[^177Lu]Lu-GAS3] please.
1.94

====

Give Biodistribution, Stomach for every item shown.
Tested on: SCID mice bearing twin HEK293-CCK2i4svR and wtHEK293 tumors
protocol text: Biodistribution in SCID mice bearing twin HEK293-CCK2i4svR and wtHEK293 xenografts
Format: in vivo
condition description: 24 h pi
Quick note: give the figure in %IA/g, leave out the unit.

Return the recorded Biodistribution, Stomach value; entry: CC(C)(C)C(=O)CN1C(=O)[C@H](NC(=O)Nc2cccc(C(=O)NCCOCCOCCOCCNC(=O)[C@H](CCC(=O)O)NC(=O)CN3CCN(CC(=O)[O-])CCN(CC(=O)[O-])CCN(CC(=O)[O-])CC3)c2)CN(C2CCCCC2)c2ccccc21.[111In+3] (stereo in doubt) [[^111In]In-GAS1]
0.21

Specify reported Biodistribution, Stomach for the compound shown: CC(C)(C)C(=O)CN1C(=O)[C@H](NC(=O)Nc2cccc(C(=O)NCCOCCOCCOCCNC(=O)[C@@H](CCC(=O)O)NC(=O)CCC(C(=O)O)N3CCN(CC(=O)[O-])CCN(CC(=O)[O-])CCN(CC(=O)[O-])CC3)c2)CN(C2CCCCC2)c2ccccc21.[111In+3] (some centres unmarked) [[^111In]In-GAS3]
0.35

Identify the reported Biodistribution, Stomach for the following entry. CC(C)(C)C(=O)CN1C(=O)[C@H](NC(=O)Nc2cccc(C(=O)NCCOCCOCCOCCNC(=O)[C@H](CCC(=O)O)NC(=O)CN3CCN(CC(=O)[O-])CCN(CC(=O)[O-])CCN(CC(=O)[O-])CC3)c2)CN(C2CCCCC2)c2ccccc21.[177Lu+3] (stereo in doubt) [[^177Lu]Lu-GAS1]
0.14

Determine its reported Biodistribution, Stomach: CC(C)(C)C(=O)CN1C(=O)[C@H](NC(=O)Nc2cccc(C(=O)NCCOCCOCCOCCNC(=O)[C@@H](CCC(=O)O)NC(=O)CCC(C(=O)[O-])N3CCN(CC(=O)[O-])CCN(CC(=O)[O-])CC3)c2)CN(C2CCCCC2)c2ccccc21.[111In+3] (some centres unmarked) [[^111In]In-GAS2]
0.36

For the compound CC(C)(C)C(=O)CN1C(=O)[C@H](NC(=O)Nc2cccc(C(=O)NCCOCCOCCOCCNC(=O)[C@H](CCC(=O)O)NC(=O)CN3CCN(CC(=O)[O-])CCN(CC(=O)[O-])CCN(CC(=O)[O-])CC3)c2)CN(C2CCCCC2)c2ccccc21.[67Ga+3] (stereo in doubt) [[^67Ga]Ga-GAS1] , report Biodistribution, Stomach.
0.18

====

System: SCID mice bearing twin HEK293-CCK2i4svR and wtHEK293 tumors
protocol text: Biodistribution in SCID mice bearing twin HEK293-CCK2i4svR and wtHEK293 xenografts
Assay type: in vivo
condition description: 4 h pi
measurement type: Biodistribution, Liver

Report Biodistribution, Liver for CC(C)(C)C(=O)CN1C(=O)[C@H](NC(=O)Nc2cccc(C(=O)NCCOCCOCCOCCNC(=O)[C@H](CCC(=O)O)NC(=O)CN3CCN(CC(=O)[O-])CCN(CC(=O)[O-])CCN(CC(=O)[O-])CC3)c2)CN(C2CCCCC2)c2ccccc21.[111In+3] (stereo in doubt) [[^111In]In-GAS1]
7.69 ± 1.00 %IA/g

Return reported Biodistribution, Liver. Input compound: CC(C)(C)C(=O)CN1C(=O)[C@H](NC(=O)Nc2cccc(C(=O)NCCOCCOCCOCCNC(=O)[C@H](CCC(=O)O)NC(=O)CN3CCN(CC(=O)[O-])CCN(CC(=O)[O-])CCN(CC(=O)[O-])CC3)c2)CN(C2CCCCC2)c2ccccc21.[67Ga+3] (stereo in doubt) [[^67Ga]Ga-GAS1]
2.49 ± 0.31 %IA/g

Check the records and state Biodistribution, Liver for CC(C)(C)C(=O)CN1C(=O)[C@H](NC(=O)Nc2cccc(C(=O)NCCOCCOCCOCCNC(=O)[C@H](CCC(=O)O)NC(=O)CN3CCN(CC(=O)[O-])CCN(CC(=O)[O-])CCN(CC(=O)[O-])CC3)c2)CN(C2CCCCC2)c2ccccc21.[177Lu+3] (stereo in doubt) [[^177Lu]Lu-GAS1]
2.21 ± 0.44 %IA/g

Return reported Biodistribution, Liver. Input compound: CC(C)(C)C(=O)CN1C(=O)[C@H](NC(=O)Nc2cccc(C(=O)NCCOCCOCCOCCNC(=O)[C@@H](CCC(=O)O)NC(=O)CCC(C(=O)[O-])N3CCN(CC(=O)[O-])CCN(CC(=O)[O-])CC3)c2)CN(C2CCCCC2)c2ccccc21.[111In+3] (stereo partly shown) [[^111In]In-GAS2]
5.42 ± 0.89 %IA/g

====

Tested on: SCID mice bearing twin HEK293-CCK2i4svR and wtHEK293 tumors
protocol text: Biodistribution in SCID mice bearing twin HEK293-CCK2i4svR and wtHEK293 xenografts
Format: in vivo
condition description: 24 h pi
Hi! Could you tag entries with Biodistribution, Femur below 0.2 %IA/g as True, and those at or above as False? Much appreciated.

# TODO verify Biodistribution, Femur < 0.2 %IA/g strictly for this compound: CC(C)(C)C(=O)CN1C(=O)[C@H](NC(=O)Nc2cccc(C(=O)NCCOCCOCCOCCNC(=O)[C@H](CCC(=O)O)NC(=O)CN3CCN(CC(=O)[O-])CCN(CC(=O)[O-])CCN(CC(=O)[O-])CC3)c2)CN(C2CCCCC2)c2ccccc21.[111In+3] (stereo in doubt) [[^111In]In-GAS1]
True

A record lists CC(C)(C)C(=O)CN1C(=O)[C@H](NC(=O)Nc2cccc(C(=O)NCCOCCOCCOCCNC(=O)[C@@H](CCC(=O)O)NC(=O)CCC(C(=O)O)N3CCN(CC(=O)[O-])CCN(CC(=O)[O-])CCN(CC(=O)[O-])CC3)c2)CN(C2CCCCC2)c2ccccc21.[111In+3] (some centres unmarked) [[^111In]In-GAS3] . Is its Biodistribution, Femur below 0.2 %IA/g?
False

API: query returns whether the compound falls strictly under 0.2 %IA/g in Biodistribution, Femur. Query: CC(C)(C)C(=O)CN1C(=O)[C@H](NC(=O)Nc2cccc(C(=O)NCCOCCOCCOCCNC(=O)[C@H](CCC(=O)O)NC(=O)CCC(C(=O)[O-])N3CCN(CC(=O)[O-])CCN(CC(=O)[O-])CC3)c2)CN(C2CCCCC2)c2ccccc21.[67Ga+3] (stereo in doubt) [[^67Ga]Ga-GAS2]
True

Please indicate whether the reported Biodistribution, Femur of CC(C)(C)C(=O)CN1C(=O)[C@H](NC(=O)Nc2cccc(C(=O)NCCOCCOCCOCCNC(=O)[C@@H](CCC(=O)O)NC(=O)CCC(C(=O)[O-])N3CCN(CC(=O)[O-])CCN(CC(=O)[O-])CC3)c2)CN(C2CCCCC2)c2ccccc21.[111In+3] (some centres unmarked) [[^111In]In-GAS2] is strictly below 0.2 %IA/g.
False

Please let me know if CC(C)(C)C(=O)CN1C(=O)[C@H](NC(=O)Nc2cccc(C(=O)NCCOCCOCCOCCNC(=O)[C@H](CCC(=O)O)NC(=O)CN3CCN(CC(=O)[O-])CCN(CC(=O)[O-])CCN(CC(=O)[O-])CC3)c2)CN(C2CCCCC2)c2ccccc21.[67Ga+3] (stereo in doubt) [[^67Ga]Ga-GAS1] shows Biodistribution, Femur below 0.2 %IA/g.
True

Please let me know if CC(C)(C)C(=O)CN1C(=O)[C@H](NC(=O)Nc2cccc(C(=O)NCCOCCOCCOCCNC(=O)[C@H](CCC(=O)O)NC(=O)CCC(C(=O)O)N3CCN(CC(=O)[O-])CCN(CC(=O)[O-])CCN(CC(=O)[O-])CC3)c2)CN(C2CCCCC2)c2ccccc21.[177Lu+3] (stereo in doubt) [[^177Lu]Lu-GAS3] shows Biodistribution, Femur below 0.2 %IA/g.
True

# check: Biodistribution, Femur < 0.2 %IA/g for CC(C)(C)C(=O)CN1C(=O)[C@H](NC(=O)Nc2cccc(C(=O)NCCOCCOCCOCCNC(=O)[C@H](CCC(=O)O)NC(=O)CCC(C(=O)O)N3CCN(CC(=O)[O-])CCN(CC(=O)[O-])CCN(CC(=O)[O-])CC3)c2)CN(C2CCCCC2)c2ccccc21.[67Ga+3] (stereo in doubt) [[^67Ga]Ga-GAS3]
False

Input CC(C)(C)C(=O)CN1C(=O)[C@H](NC(=O)Nc2cccc(C(=O)NCCOCCOCCOCCNC(=O)[C@H](CCC(=O)O)NC(=O)CN3CCN(CC(=O)[O-])CCN(CC(=O)[O-])CCN(CC(=O)[O-])CC3)c2)CN(C2CCCCC2)c2ccccc21.[177Lu+3] (stereo in doubt) [[^177Lu]Lu-GAS1] ; condition: Biodistribution, Femur strictly below 0.2 %IA/g. Does it hold?
True

Where do these numbers come from? They come from paper PMC8954547.
